Cited source: patent US20140350081A1

Give measured % Inhibition (of response to dopamine), Isdop2 screen for each item. Keep answers brief.
Target: Isdop2 (Ixodes scapularis)
Sequence (A0ACM8DGL0 entry or part of it): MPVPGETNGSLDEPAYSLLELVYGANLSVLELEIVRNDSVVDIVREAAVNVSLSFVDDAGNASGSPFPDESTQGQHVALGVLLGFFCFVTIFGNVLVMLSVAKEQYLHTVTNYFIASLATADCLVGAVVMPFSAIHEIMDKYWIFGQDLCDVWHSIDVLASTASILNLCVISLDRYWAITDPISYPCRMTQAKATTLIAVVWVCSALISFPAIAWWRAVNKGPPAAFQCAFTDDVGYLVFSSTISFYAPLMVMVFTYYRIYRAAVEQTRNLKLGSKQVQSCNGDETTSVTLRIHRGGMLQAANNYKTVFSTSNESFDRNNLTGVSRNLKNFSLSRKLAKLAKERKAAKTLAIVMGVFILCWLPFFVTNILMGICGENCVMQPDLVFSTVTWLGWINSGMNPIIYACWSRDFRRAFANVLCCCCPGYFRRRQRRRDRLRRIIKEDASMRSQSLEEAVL
Assay: cell-based
Answers are plain numbers, in %.

Known % Inhibition (of response to dopamine), Isdop2 screen results, listed for orientation:
{"Compound": "O=C1C(SCCO)=C(SCCO)C(=O)c2ccccc21 [NSC 95397]", "Target Or Test System": "Isdop2 (Ixodes scapularis)", "Unit Spec": "%", "Recorded Measurement": 93}
{"Compound": "O=C1Nc2ccc(I)cc2/C1=C/c1cc(Br)c(O)c(Br)c1 [GW5074]", "Target Or Test System": "Isdop2 (Ixodes scapularis)", "Unit Spec": "%", "Recorded Measurement": 81}
{"Compound": "CC1CNCCN1S(=O)(=O)c1cccc2cnccc12.Cl.Cl (centres unmarked) [H-7 dihydrochloride]", "Target Or Test System": "Isdop2 (Ixodes scapularis)", "Unit Spec": "%", "Recorded Measurement": 73}
{"Compound": "CCCCCCCCCCCCCC(=O)O[C@@H]1[C@@H](C)[C@@]2(O)[C@@H](C=C(CO)C[C@]3(O)C(=O)C(C)=C[C@@H]23)[C@@H]2C(C)(C)[C@]12OC(C)=O [Phorbol 12-myristate 13-acetate]", "Target Or Test System": "Isdop2 (Ixodes scapularis)", "Unit Spec": "%", "Recorded Measurement": 75}

Switching to the query record.
Enquiry: For the compound O=C1Nc2ccccc2/C1=C1/Nc2ccccc2/C1=N\O [Indirubin-3′-oxime] , give its measured % Inhibition (of response to dopamine), Isdop2 screen value.
Return: 93
